Kindly supply the reported exon inclusion enrichment score values for the records listed here.
B1: mRNA-splicing (parent)
chain: GAUCCAGAUCUAACUUGGGGUGGCUUUGUCUUCUUCUUUUGCCAAUUCCACUAAUUGUUUGGG

# Variants of: B1
# Measurement Notes: exon inclusion enrichment score (log2 ratio to wild type); higher = more inclusion; FAS exon 6 minigene, HEK293
Answers are plain numbers.

- Mutation Spec: "U21G"
  Measurement Name: "exon inclusion enrichment score"
  Reported Result: -5.29

Give exon inclusion enrichment score for each of the items listed below.
1. U31G
2. G28C
3. C30U
4. A6G
5. C10G

Reply |
[-1.2, -1.84, -2.3, 0.571, -0.124]

Give exon inclusion enrichment score for each listed item.
1. C14U
2. C30G
3. U16A
4. C42G
5. C14A
6. A6U

Reply |
[-0.791, -0.286, -0.773, -0.175, -0.554, -0.25]

// each listed variant needs a value for exon inclusion enrichment score
1. C10U
2. U58A
3. A12U
4. C51A
5. A50C
6. A2G

Reply |
1: 0.024; 2: 0.099; 3: -0.405; 4: -1.68; 5: -3.91; 6: 0.511

Need exon inclusion enrichment score for each of these variants.
1. G57C
2. C24A
3. G63A
4. U15A
5. U16G
6. U3C
7. U25G

Reply |
1: -0.537; 2: 0.043; 3: -5.7; 4: -0.077; 5: -0.702; 6: -0.472; 7: 0.284

Can you give me exon inclusion enrichment score for all of these, one by one?
1. C51U
2. C10A
3. U35A
4. U15C
5. U58C

Reply |
1: -1.53; 2: -0.393; 3: -0.045; 4: 0.272; 5: -0.116

Quick batch: exon inclusion enrichment score for everything below.
1. C24G
2. G19C
3. C48U
4. U46A
5. U27A
6. G23U
7. C33A

Reply |
1. -6.71
2. 0.027
3. -2.35
4. 0.041
5. -0.647
6. -0.765
7. -3.75

For every listed record, write down its exon inclusion enrichment score.
1. G62C
2. A53C
3. C4U
4. A8U

Reply |
[-0.199, -0.152, -2.86, -0.416]

Hey, quick one: what's exon inclusion enrichment score for each of these?
1. C49U
2. G62A

Reply |
1: -0.226; 2: -0.115
